Items are presented alongside their recorded TGI.
Tested on: HS 578T breast
Test: NCI tumour cell line growth inhibition, 48 h
Record the value in µM, omitting the unit from your answer.

Sample answers from the record:
compound	tested.target	TGI / µM
CC(=O)OCC1OC(O[C@@H]2C[C@H]3C(C)(C)[C@H](OC(C)=O)CC[C@]3(C)[C@H]3CCC4=C([C@@H](C)C[C@@H](O)[C@H](O)C(C)(C)O)CC[C@@]4(C)[C@@]32C)C(O)C(O)C1O (stereo partly drawn)	HS 578T breast	32.8
C[C@@H]1CC[C@@H]2[C@@H]1[C@H](OC(=O)/C=C/c1ccccc1)[C@]1(c3ccccc3)C[C@@H](OC(=O)CO)[C@@]2(C)O1	HS 578T breast	0.708
COc1cc(/C=C\[N+](=O)[O-])ccc1O	HS 578T breast	28.8
CCn1cc(C(c2ccc(Cl)cc2)n2ccnc2)c2cc(Br)ccc21 (stereo not drawn)	HS 578T breast	47.2

Entry COc1ccc(-c2c(C#N)c(N)n(C3OC(CO)C(O)C(O)C3O)c(=S)c2C#N)cc1 (stereo not drawn) ; assay system HS 578T breast; TGI recorded at 47.4

----------
Items are presented alongside their recorded TGI.
Tested on: SF-268 CNS
Assay: NCI tumour cell line growth inhibition, 48 h

Sample answers from the record:
molecule	tested.target	measurement.kind	result
O=C1CC2C=CC(O)C(C1)C2 (centres undefined)	SF-268 CNS	TGI	> 100 µM
Nc1nc(Cl)cc(NCC2(CO)CC(CCc3ccccc3)C2)n1 (centres undefined)	SF-268 CNS	TGI	> 100 µM

Measured TGI of Oc1ccccc1C(c1cc2c(cc1O)OCO2)N1CCOCC1 (centres undefined) : 36.9 µM

Measured TGI of COc1ccc2c(c1)c1c(n2CCN2CCOCC2)-c2ccccc2CC1 : > 100 µM

----------
Test system: RXF 393 renal
Experiment: NCI tumour cell line growth inhibition, 48 h
measurement.kind: TGI

Sample answers from the record:
compound	TGI
O=c1c2c3ccccc3[nH]c2c2cccc3c2n1CCC3	> 100 µM
O=c1oc2ccccc2c(O)c1C(c1cc(OCc2ccccc2)cc(OCc2ccccc2)c1)c1c(O)c2ccccc2oc1=O	> 52 µM

Entry COc1cc2oc(-c3ccc(O)cc3)c(OC3OC(C)C(O)C(O)C3O)c(=O)c2c(O)c1OC (stereo not drawn) ; assay system RXF 393 renal; TGI recorded at > 100 µM

----------
Tested on: SF-539 CNS
Test: NCI tumour cell line growth inhibition, 48 h
Items are presented alongside their recorded log10 of TGI.
Scale: log10; quantity: TGI; unit before log: µM

Sample answers from the record:
compound	log10 of TGI
O=C(O)c1ccc(NC(c2ccccc2)c2ccc3cccnc3c2O)cc1 (stereo unspecified)	1.41
Brc1cccc(-c2cc(-c3ccc4c(c3)OCCO4)[nH]n2)c1	0.93
FC(F)(F)c1nc(-c2ccccc2Cl)[nH]c1C(F)(F)F	0.65
O=C(/C=C/c1ccccc1)/C=C/c1ccccc1O	1.65
Oc1ccccc1C(c1cc2c(cc1O)OCO2)N1CCOCC1 (stereo unspecified)	1.59

Measured log10 of TGI of CC(C)=CCN1CC(C)C(=O)Nc2cc(Cl)ccc21 (stereo unspecified) : 1.63

Measured log10 of TGI of CN1CCN(Cc2ccc(C(=O)Nc3cncc(C#Cc4cnc(N)c5ccccc45)c3)cc2C(F)(F)F)CC1 : 0.46

----------
System: CCRF-CEM leukemia
Test: NCI tumour cell line growth inhibition, 48 h; in the data active = GI50 below about 0.43 µM; inactive = the rest
Please reply with one of these outcomes: yes (1) = active, no (0) = inactive

Answered examples (6):
compound	tested.target	assigned.class
N#CC(=C1SCS1)[N+](=O)[O-]	CCRF-CEM leukemia	yes (1)
C#Cc1ccc(-n2c(/C=C/c3ccc(Cl)c(F)c3)nc3ncccc3c2=O)cc1	CCRF-CEM leukemia	yes (1)
CC(=O)c1ccc(Nc2cc(-c3ccccc3)nc3c(O)cccc23)cc1	CCRF-CEM leukemia	no (0)
CC1(C)N=C(N)N=C(N)N1c1ccc(CCCCc2ccc(S(=O)(=O)F)cc2)cc1	CCRF-CEM leukemia	no (0)
CNC(=O)c1ccccc1CC1(O)c2ccccc2Oc2ccccc21	CCRF-CEM leukemia	no (0)
O=C(CCN1CCN(c2cnc3ccccc3n2)CC1)c1csc2ccccc12	CCRF-CEM leukemia	no (0)

input: So what was the verdict on Cc1cc2nc3c4cc(Cl)ccc4n(CCN(C)C)c3nc2cc1C in this test?
output: no (0)

input: So what was the verdict on C=C1C(O)C2CCC(C)(C)C(=O)C2=C(CC(C)C)C12CC2 (stereo not given) in this test?
output: no (0)

input: So what was the verdict on COc1cc(-n2cc(-c3ccc(Cl)c(Cl)c3)nc2SCc2ccccc2)cc(OC)c1OC in this test?
output: no (0)

input: So what was the verdict on O=C(CSc1nc2ccc([N+](=O)[O-])cc2[nH]1)Nc1ccc(F)c(Cl)c1 in this test?
output: no (0)

----------
Items are presented alongside their recorded TGI.
Test system: M14 melanoma
Assay: NCI tumour cell line growth inhibition, 48 h
Record the value in µM, omitting the unit from your answer.

molecule	TGI / µM
COC(=O)C1(Cc2ccccc2)Cc2cc3c(cc2C1=O)CCC3 (stereo unspecified)	57.6
Oc1ccccc1C(c1cc2c(cc1O)OCO2)N1CCOCC1 (stereo unspecified)	34.3
CN1CCN(Cc2ccc(C(=O)Nc3cncc(C#Cc4cnc(N)c5ccccc45)c3)cc2C(F)(F)F)CC1	14.8

Entry O=C(NNc1nc2c(F)cccc2n2cccc12)c1cnccn1 ; assay system M14 melanoma; TGI recorded at 11.7

Entry Cc1nn(-c2ccc(F)cc2)c2ncnc(Nc3ccc(NC(=O)Nc4ccc(Cl)c(C(F)(F)F)c4)cc3)c12 ; assay system M14 melanoma; TGI recorded at 11.6

----------
System: NCI-H226 lung
Assay: NCI tumour cell line growth inhibition, 48 h; in the data active = GI50 below about 0.43 µM; inactive = the rest
Please reply with one of these outcomes: 1.0 = active, 0.0 = inactive

Answered examples (3):
compound	assigned.class
Cc1nn(-c2ccc(F)cc2)c2ncnc(Nc3ccc(NC(=O)Nc4ccc(Cl)c(C(F)(F)F)c4)cc3)c12	0.0
Brc1cccc(-c2cc(-c3ccc4c(c3)OCCO4)[nH]n2)c1	0.0
CCN1CCN(c2nc(NCCCNc3ccnc4cc(Cl)ccc34)c3ccccc3n2)CC1	0.0

input: So what was the verdict on C=C1CCC2C(/C=C(\C)CCC1O)OC(=O)C2C (centres undefined) in this test?
output: 0.0

input: So what was the verdict on C=CC(=O)Nc1cccc(-c2nc(SC)nc(Nc3ccccc3OC)c2C#N)c1 in this test?
output: 0.0

input: So what was the verdict on O=C(c1ccc2ccccc2c1)c1c(C(F)(F)F)n([O-])c2cc(Cl)c(Cl)cc2[n+]1=O in this test?
output: 0.0

input: So what was the verdict on COc1ccc(/C=C/C=C(/C#N)C(N)=S)cc1 in this test?
output: 0.0

----------
Items are presented alongside their recorded GI50.
System: MOLT-4 leukemia
Assay: NCI tumour cell line growth inhibition, 48 h

Sample answers from the record:
molecule	measurement.kind	result
CN(C)CC(=O)N1CCC(c2ccc(NC(=O)c3ncc(C#N)[nH]3)c(C3=CCCCC3)c2)CC1	GI50	3.72 µM
Cc1nn(-c2ccc(S(=O)(=O)[O-])cc2)c([O-])c1N=[N+](C)c1ccc(-c2ccc(N=Nc3ccc4c(S(=O)(=O)[O-])cc(S(=O)(=O)[O-])c(N)c4c3[O-])c([O-])c2)cc1[O-].[Cu+2].[Cu+2].[Na+]	GI50	> 100 µM
NC(CO)Cc1cnc[nH]1 (centres undefined)	GI50	> 100 µM

Measured GI50 of Clc1ccccc1C(c1ccccc1)(c1ccccc1)n1ccnc1 : 1.96 µM

----------
System: K-562 leukemia
Assay: NCI tumour cell line growth inhibition, 48 h; in the data active = GI50 below about 0.43 µM; inactive = the rest
Please reply with one of these outcomes: active, inactive

compound	assigned.class
COc1cc(/C=C\[N+](=O)[O-])ccc1O	inactive
CN(C)CC(=O)N1CCC(c2ccc(NC(=O)c3ncc(C#N)[nH]3)c(C3=CCCCC3)c2)CC1	inactive
O=C(Nc1nc2ccccc2s1)OCC(F)(F)F	inactive

input: So what was the verdict on Cc1[nH]c(/C=C2\C(=O)Nc3ccc(S(=O)(=O)Cc4c(Cl)cccc4Cl)cc32)c(C)c1C(=O)N1CCC[C@@H]1CN1CCCC1 in this test?
output: inactive

input: So what was the verdict on O=C(c1ccc2ccccc2c1)c1c(C(F)(F)F)n([O-])c2cc(Cl)c(Cl)cc2[n+]1=O in this test?
output: inactive

input: So what was the verdict on COc1ccc(-c2cc(-c3cc(Cl)ccc3Cl)nc3[nH]c(-c4cc(F)c(Cl)cc4Cl)cc(=O)c23)cc1 in this test?
output: inactive

input: So what was the verdict on COc1cc(-n2cc(-c3ccc(Cl)c(Cl)c3)nc2SCc2ccccc2)cc(OC)c1OC in this test?
output: inactive

input: So what was the verdict on CC(=O)OCC1OC(O[C@@H]2C[C@H]3C(C)(C)[C@H](OC(C)=O)CC[C@]3(C)[C@H]3CCC4=C([C@@H](C)C[C@@H](O)[C@H](O)C(C)(C)O)CC[C@@]4(C)[C@@]32C)C(O)C(O)C1O (some centres undefined) in this test?
output: inactive

input: So what was the verdict on CC(=O)[CH-]C(=O)c1ccccc1.CC(=O)[CH-]C(=O)c1ccccc1.CCCCCCCCCCCCCCCCCC(=O)[O-].CCCCCCCCCCCCCCCCCC(=O)[O-].[Ti+4] in this test?
output: inactive

input: So what was the verdict on O=C1/C(=C/c2ccc(F)cc2)CCOc2ccc([N+](=O)[O-])cc21 in this test?
output: inactive

input: So what was the verdict on COC(=O)C1OC(O[C@H]2CCC3(C)C(CCC4(C)C3CC=C3C5CC(C)(C)CCC5(C(=O)O)CC[C@]34C)C2(C)C)C(O)C(OC2OC(CO)C(O)C(O)C2O)C1O (some centres undefined) in this test?
output: inactive

input: So what was the verdict on O=c1cc(-c2cccc(F)c2)[nH]c2cc3c(cc12)OCO3 in this test?
output: active
